System: Acinetobacter calcoaceticus
Assay: Minimum inhibitory concentration (MIC) against Acinetobacter calcoaceticus 15473
Type: functional
Conditions: Acinetobacter calcoaceticus; read-out: MIC

[
  {
    "molecule": "CO/N=C1\\CN(c2nc3c(cc2F)c(=O)c(C(=O)O)cn3C2CC2)CC1CN (stereo in doubt)",
    "value_modifier": "=",
    "MIC (µg/mL)": 0.063
  },
  {
    "molecule": "CC(C)(C)O/N=C1\\CN(c2nc3c(cc2F)c(=O)c(C(=O)O)cn3C2CC2)CC1CN (centres undefined)",
    "value_modifier": "=",
    "MIC (µg/mL)": 0.031
  },
  {
    "molecule": "CCCO/N=C1\\CN(c2nc3c(cc2F)c(=O)c(C(=O)O)cn3C2CC2)CC1CN (centres undefined)",
    "value_modifier": "=",
    "MIC (µg/mL)": 0.031
  },
  {
    "molecule": "CO/N=C1\\CN(c2c(F)cc3c(=O)c(C(=O)O)cn(C4CC4)c3c2OC)CC1CN (centres undefined)",
    "value_modifier": "=",
    "MIC (µg/mL)": 0.25
  },
  {
    "molecule": "CCn1cc(C(=O)O)c(=O)c2cc(F)c(N3C/C(=N\\OC)C(CN)C3)c(F)c21 (centres undefined)",
    "value_modifier": "=",
    "MIC (µg/mL)": 1
  },
  {
    "molecule": "CCO/N=C1\\CN(c2nc3c(cc2F)c(=O)c(C(=O)O)cn3C2CC2)CC1CN (centres undefined)",
    "value_modifier": "=",
    "MIC (µg/mL)": 0.016
  },
  {
    "molecule": "NCC1CN(c2nc3c(cc2F)c(=O)c(C(=O)O)cn3C2CC2)C/C1=N\\OCc1ccccc1 (centres undefined)",
    "value_modifier": "<",
    "MIC (µg/mL)": 0.008
  },
  {
    "molecule": "NCC1CN(c2nc3c(cc2F)c(=O)c(C(=O)O)cn3C2CC2)C/C1=N\\Oc1ccccc1 (centres undefined)",
    "value_modifier": "=",
    "MIC (µg/mL)": 0.016
  },
  {
    "molecule": "CC(C)O/N=C1\\CN(c2nc3c(cc2F)c(=O)c(C(=O)O)cn3C2CC2)CC1CN (centres undefined)",
    "value_modifier": "=",
    "MIC (µg/mL)": 0.031
  }
]

* * *

Catalogue of MIC readings, one per entry.
System: Escherichia coli
Assay: Minimum inhibitory concentration (MIC) against Escherichia coli 10536
Format: functional
attribute_measured: MIC

[
  {
    "compound": "NCC1CN(c2nc3c(cc2F)c(=O)c(C(=O)O)cn3C2CC2)C/C1=N\\Oc1ccccc1 (stereo not drawn)",
    "reported_result": "0.031 µg/mL"
  },
  {
    "compound": "CNCC1CN(c2nc3c(cc2F)c(=O)c(C(=O)O)cn3C2CC2)C/C1=N\\OC (stereo not drawn)",
    "reported_result": "0.063 µg/mL"
  },
  {
    "compound": "NCC1CN(c2nc3c(cc2F)c(=O)c(C(=O)O)cn3C2CC2)C/C1=N\\O (stereo not drawn)",
    "reported_result": "0.031 µg/mL"
  },
  {
    "compound": "NCC1CCN(c2nc3c(cc2F)c(=O)c(C(=O)O)cn3C2CC2)C1 (stereo not drawn)",
    "reported_result": "0.031 µg/mL"
  },
  {
    "compound": "CO/N=C1\\CN(c2cc3c(cc2F)c(=O)c(C(=O)O)cn3C2CC2)CC1CN (stereo not drawn)",
    "reported_result": "< 0.008 µg/mL"
  },
  {
    "compound": "CO/N=C1\\CN(c2nc3c(cc2F)c(=O)c(C(=O)O)cn3-c2ccc(F)cc2F)CC1CN (stereo not drawn)",
    "reported_result": "0.063 µg/mL"
  },
  {
    "compound": "CCCO/N=C1\\CN(c2nc3c(cc2F)c(=O)c(C(=O)O)cn3C2CC2)CC1CN (stereo not drawn)",
    "reported_result": "< 0.008 µg/mL"
  },
  {
    "compound": "CCn1cc(C(=O)O)c(=O)c2cc(F)c(N3C/C(=N\\OC)C(CN)C3)c(F)c21 (stereo not drawn)",
    "reported_result": "0.063 µg/mL"
  },
  {
    "compound": "NCC1CN(c2nc3c(cc2F)c(=O)c(C(=O)O)cn3C2CC2)C/C1=N\\OCc1ccccc1 (stereo not drawn)",
    "reported_result": "< 0.008 µg/mL"
  },
  {
    "compound": "CO/N=C1\\CN(c2c(F)c(N)c3c(=O)c(C(=O)O)cn(C4CC4)c3c2F)CC1CN (stereo not drawn)",
    "reported_result": "< 0.008 µg/mL"
  },
  {
    "compound": "CO/N=C1\\CN(c2c(F)cc3c(=O)c(C(=O)O)cn(C4CC4)c3c2OC)CC1CN (stereo not drawn)",
    "reported_result": "0.063 µg/mL"
  },
  {
    "compound": "CCO/N=C1\\CN(c2nc3c(cc2F)c(=O)c(C(=O)O)cn3C2CC2)CC1CN (stereo not drawn)",
    "reported_result": "< 0.008 µg/mL"
  },
  {
    "compound": "CO/N=C1\\CN(c2nc3c(cc2F)c(=O)c(C(=O)O)cn3C2CC2)CC1CN(C)C (stereo not drawn)",
    "reported_result": "0.13 µg/mL"
  },
  {
    "compound": "CC(C)O/N=C1\\CN(c2nc3c(cc2F)c(=O)c(C(=O)O)cn3C2CC2)CC1CN (stereo not drawn)",
    "reported_result": "< 0.008 µg/mL"
  },
  {
    "compound": "CC(C)(C)O/N=C1\\CN(c2nc3c(cc2F)c(=O)c(C(=O)O)cn3C2CC2)CC1CN (stereo not drawn)",
    "reported_result": "≤ 0.008 µg/mL"
  },
  {
    "compound": "CO/N=C1\\CN(c2c(F)cc3c(=O)c(C(=O)O)cn(C4CC4)c3c2F)CC1CN (stereo not drawn)",
    "reported_result": "< 0.008 µg/mL"
  },
  {
    "compound": "CO/N=C1\\CN(c2nc3c(cc2F)c(=O)c(C(=O)O)cn3C2CC2)CC1CN (stereo in doubt)",
    "reported_result": "< 0.008 µg/mL"
  },
  {
    "compound": "CO/N=C1\\CN(c2c(F)cc3c(=O)c(C(=O)O)cn(C4CC4)c3c2Cl)CC1CN (stereo not drawn)",
    "reported_result": "0.031 µg/mL"
  }
]

Cited source for all entries: ChEMBL document CHEMBL1130203
